The following proteins are listed with their measured Proxy for plastic degradation values.
Substrate: PET
Test: Proxy for plastic degradation [Released monomer concentration (HPLC/LC-MS) (TPA+MHET+BHET)]
Conditions: pH 9
// units = µM; emit number, no label

Worked examples, 2 proteins total:
unnamed (protein) MKAPLFKLAAFTLGVSLSSVALATNPGGGGAGSNPDTGTGFPGVSSFSADGSFATTSGSAGLSCTVFRPSTLGANGLKHPIIVWGNGTTASPSTYSGILEHWASHGFVVIAANTSNAGTGQDMLNCVDYLTTQNNRSTGTYANKLDLNRIGAAGHSQGGGGTIMAGQDYRIKVTAPFQPWTIGLGHNSSSQSNQNGPMFLMTGSADTIASPTLSALPIYNRANVPVFWGELSGASHFEPVGSAGDFRGPSTAWFRYHLMDDASAEDTFYGSNCDLCTDNDWDVRRKGIN    105
unnamed (protein) MKAPLFKLAAFTLGVSLSSVALATNPGGGGAGSNPDTGTGFPGVSSFSADGSFATTSGSAGLSCTVFRPSTLGANGLKHPIIVWGNGTTASPSTYSGILEHWASHGFVVIAANTSNAGTGQDMLNCVDYLTTQNNRSTGTYANKLDLNRIGAAGHAQGGGGTIMAGQDYRIKVTAPFQPYTIGLGHNSSSQSNQNGPMFLMTGSADTIASPTLNALPVYNRANVPVFWGELSGASHFEPVGSAGDFRGPSTAWFRYHLMDDASAEDTFYGSNCDLCTDNDWDVRRKGIN    10

Query string: Entry unnamed (protein) MKAPLFKLAAFTLGVSLSSVALATNPGGGGAGSNPDTGTGFPGVSSFSADGSFATTSGSAGLSCTVFRPSTLGANGLKHPIIVWGNGYTASPSTYSGILEHWASHGFVVIAANTSNAGTGQDMLNCVDYLTTQNNRSTGTYANKLDLNRIGAAGHSQGGGGTIMAGQDYRIKVTAPFQPYTIGLGHNSSSQSNQNGPMFLMTGSADTIASPTLNALPVYNRANVPVFWGELSGASHFEPVGSAGDFRGPSTAWFRYHLMDDASAEDTFYGSNCDLCTDNDWDVRRKGIN has what Proxy for plastic degradation?
Result string: 345

Query string: Entry unnamed (protein) MKAPLFKLAAFTLGVSLSSVALATNPGGGGAGSNPDTGTGFPGVSSFSADGSFATTSGSAGLSCTVFRPSTLGANGLKHPIIVWGNGTTASPSTYSGILEHWASHGFVVIAANTSNAGTGQDMLNCVDYLTTQNNRSTGTYANKLDLNRIGAAGHSQGGGGTIMAGQDYRIKVTAPFQPYTIGLGHNSSSQSNQNGPMFLMTGSAATIASPTLNALPVYNRANVPVFWGELSGASHFEPVGSAGDFRGPSTAWFRYHLMDDASAEDTFYGSNCDLCTDNDWDVRRKGIN has what Proxy for plastic degradation?
Result string: 10

Query string: Entry unnamed (protein) MKAPLFKLAAFTLGVSLSSVALATNPGGGGAGSNPDTGTGFPGVSSFSADGSFATTSGSAGLSCTVFRPSTLGANGLKHPIIVWGNGTTASPSTYSGILEHWASHGFVVIAANTSNAGTGQDMLNCVDYLTTQNNRSTGTYANKLDLNRIGAAGHSQGGGGTIMAGQDYRIKVTAPFQPYTIGLGHNSSSQSNQNGPMFLMTGSADTIASPTLNALPVYNRANVPVFWGELSGASHFEPVGSAGDFRGPSTAWFRYHLMDDASAEDTFYGSNADLCTDNDWDVRRKGIN has what Proxy for plastic degradation?
Result string: 10

Query string: Entry unnamed (protein) MKAPLFKLAAFTLGVSLSSVALATNPGGGGAGSNPDTGTGFPGVSSFSADGSFATTSGSAGLSCTVFRPSTLGANGLKHPIIVWGNGTTASPSTYSGILEHWASHGFVVIAANTSNAGTGQDMLNCVDYLTTQNNRSTGTYANKLDLNRIGAAGHSQGGGGTIMAGQDYRIKVTAPFQPYTIGLGHNSSSQSNQNGPMFLMTGSADTIASPTLNALPVYNRANVPVFWGELSGASHIEPVGSAGDFRGPSTAWFRYHLMDDASAEDTFYGSNCDLCTDNDWDVRRKGIN has what Proxy for plastic degradation?
Result string: 1280

Query string: Entry unnamed (protein) MKAPLFKLAAFTLGVSLSSVALATNPGGGGAGSNPDTGTGFPGVSSFSADGSFATTSGSAGLSCTVFRPSTLGANGLKHPIIVWGNGTTASPSTYSGILEHWASHGFVVIAANTSNAGTGQDMLNCVDYLTTQNNRSTGTYANKLDLNRIGAAGHSQGGGGTIMAGQDYRIKVTAPFQPYTIGLGHNSSSQSNQNGPMFLMTGSADTIASPTLNALPVYNRANVPVFWGELSGASHFEPVGSAGDFRGPSTAWFRYHLMDDASAEDTFYGSNCDLCTDNDWDVRRKGIN has what Proxy for plastic degradation?
Result string: 1020

Query string: Entry unnamed (protein) MKAPLFKLAAFTLGVSLSSVALATNPGGGGAGSNPDTGTGFPGVSSFSADGSFATTSGSAGLSCTVFRPSTLGANGLKHPIIVWGNGTTASPSTYSGILEHWASHGFVVIAANTSNAGTGQDMLNCVDYLTTQNNRSTGTYANKLDLNRIGAAGHSQGGGGTIMAGQDYRIKVTAPFQPYTIGLGANSSSQSNQNGPMFLMTGSADTIASPTLNALPVYNRANVPVFWGELSGASHFEPVGSAGDFRGPSTAWFRYHLMDDASAEDTFYGSNCDLCTDNDWDVRRKGIN has what Proxy for plastic degradation?
Result string: 120

Query string: Entry unnamed (protein) MKAPLFKLAAFTLGVSLSSVALATNPGGGGAGSNPDTGTGFPGVSSFSADGSFATTSGSAGLSCTVFRPSTLGANGLKHPIIVWGNGTTASPSTYSGILEHWASHGFVVIAANTSNAGTGQDMLNCVDYLTTQNNRSTGTYANKLDLNRIGAAGHSQGGGGTIMAGQDYRIKVTAPFQPFTIGLGHNSSSQSNQNGPMFLMTGSADTIASPTLNALPVYNRANVPVFWGELSGASHFEPVGSAGDFRGPSTAWFRYHLMDDASAEDTFYGSNCDLCTDNDWDVRRKGIN has what Proxy for plastic degradation?
Result string: 375

Query string: Entry unnamed (protein) MKAPLFKLAAFTLGVSLSSVALATNPGGGGAGSNPDTGTGFPGVSSFSADGSFATTSGSAGLSCTVFRPSTLGANGLKHPIIVWGNGTTASPSTYSGILEHWASHGFVVIAANTSNAGTGQDMLNCVDYLTTQNNRSTGTYANKLDLNRIGAAGHSQGGGGTIMAGQDYRIKVTAPFQPYTIGLGHNSSSQSNQNGPMFLMTGSADTIASPTLNALPVYNRANVPVFWGELSGASHFEPMGSAGDFRGPSTAWFRYHLMDDASAEDTFYGSNCDLCTDNDWDVRRKGIN has what Proxy for plastic degradation?
Result string: 870
